Cited source for all entries: patent US20190284262A1

- experimental.system: T1, HLA-A*02:01 on T2 cells alone (no peptide added) (human)
- T1 construct: TAP-deficient T2 cells without pulsed peptide; negative control target, and the HLA molecule whose stabilisation by peptides is read in the T2 stabilization assay; also called HLA-A*02 molecule; HLA-A2 molecule
- measurement.notes: flow cytometry, phage on T2 without peptide; secondary only 100, unstained 99.5
quantity.name: Median:FITC-A
Enter a number only.

Q: Need Median:FITC-A of EXT017-9 scFv phage clone (scFv, also called phage clone #9) scFv: QSALTQPASASGSPGQSVTISCTGTSSDVGGYNYVSWYQQHPGKAPKLMIYEVSKRPSGVPDRFSGSKSGNTASLTVSGLQAEDEADYYCSSYAGSNNVVFGGGTKLTVLGSRGGGGSGGGGSGGGGSLEMAEVQLVQSGAEVKKPGASVKISCKASRYTFTNYYIHWVRQAPGQGLEWMGIINPSGGSTTYPQNFQGRLTMTRDTSTSTVYMELSSLRSEDTAMYYCARGWSGYDPGDFWGQGTLVTVSSTSGQAGQHHHHHHGAYPYDVPDYAS , thanks.
Ans: 149

Q: Need Median:FITC-A of EXT017-20 scFv phage clone (scFv, full-length scFv with His+HA tags; also called EXT017-20 phage) scFv: QSVVTQPPSVSAAPGQKVTISCSGSSSNIGAGYDVHWYQQLPGTAPKLLIYGNSNRPSGVPDRFSGSKSGTSASLAITGLQAEDEADYYCQSYDSSLSGSVFGGGTKLTVLGSRGGGGSGGGGSGGGGSLEMAEVQLVQSGAEVKKPGSSVKVSCKASGGTFSSYAISWVRQAPGQGLEWMGGIIPIFGTANYAQKFQGRVTITADESTSTAYMELSSLRSEDTAVYYCARYSYKYGELDTWGQGTLVTVSSTSGQAGQHHHHHHGAYPYDVPDYAS , thanks.
Ans: 136

Q: Need Median:FITC-A of Clone #5 (scFv, also called EXT017-5; EXT017-5 scFv phage clone) scFv (VL-linker-VH-His/HA tag): QSALTQPPSASGSPGQSVTISCTGTSSDVGGYNYVSWYQQHPGKAPKLMIYEVSKRPSGVPDRFSGSKSGNTASLTVSGLQAEDEADYYCSSYAGSNTHVVFGGGTKLTVLGSRGGGGSGGGGSGGGGSLEMAEVQLVQSGAEVKKPGASVKISCKASRYTFTNYYIHWVRQAPGQGLEWMGIINPSGGSTTYPQNFQGRLTMTRDTSTSTVYMELSSLRSEDTAMYYCARGWSGYDPGDFWGQGTLVTVSSTSGQAGQHHHHHHGAYPYDVPDYAS , thanks.
Ans: 142

Q: Need Median:FITC-A of EXT017-11 scFv phage clone (scFv, also called phage clone #11) scFv: NFMLTQPHSVSESPGKTVTISCTRSSGSIASNYVQWYQQRPGSAPTTVIYEDNQRPSGVPDRFSGSIDSSSNSASLTISGLKTEDEADYYCQSYDTNNYGVIFGGGTKLTVLGSRGGGGSGGGGSGGGGSLEMAQMQLVQSGAEVKKPGASVKVSCKTSGYTFNNYYMHWVRQAPGQGLEWMGIINPSGGSTNYAQKFQGRVTMTRDTSTSTVYMELSSLRSEDTAVYYCARSFDKQDIDYWGQGTLVTVSSTSGQAGQHHHHHHGAYPYDVPDYAS , thanks.
Ans: 142

Q: Need Median:FITC-A of Clone #23 (scFv, also called EXT017-23; EXT017-23 scFv phage clone) scFv (VL-linker-VH-His/HA tag): SYELTQPPSVSVAPGQTAWITCGGNNIGSKSVHWYQQKPGQAPILVVYDDSDRPSGIPERVSGSNSGNTATLTISRVEAGDEADYYCQVWDSSSDRWVFGGGTKLTVLGSRGGGGSGGGGSGGGGSLEMAQMQLVQSGAEVKKPGASVKVSCKASGYTFTNYGISWVRQAPGQGLEWMGWISPYNGNTNYAQKLQGRVTMTTDTSTSTAYMELRNLRSDDTAVYYCARYWDSGYAYDEWGQGTLVTVSSTSGQAGQHHHHHHGAYPYDVPDYAS , thanks.
Ans: 141
